Every entry's value here was drawn from the Immune Epitope Database (IEDB).

molecular target: HLA-C*12:03; test: IEDB peptide-MHC binding, purified MHC/direct/fluorescence; filed as Kd, often an IC50 or EC50 that approximates it; bounds were set here for any values at or beyond the usual limits of such assays; conditions: source organism: Mycobacterium tuberculosis variant bovis
MEASURED ENDPOINT: Kd (nM)
Answers are plain numbers, in nM.

With HLA-C*12:03 as the test system, provide measured Kd for this sequence: VTNDGVIFF 319

----------
biological target: HLA-A*33:01; assay: IEDB peptide-MHC binding, purified MHC/competitive/radioactivity; filed as Kd, often an IC50 or EC50 that approximates it; bounds were set here for any values at or beyond the usual limits of such assays; conditions: source organism: Vaccinia virus WR
Kd under 4 µM gets Y, anything at or over 4 µM gets N.

HTTAFFNTCK :: N

Please indicate whether the reported Kd of TFRERYSYK is strictly below 4 µM. Y

Threshold test, Kd < 4 µM: IAHINTLIQY N

# TODO verify Kd < 4 µM strictly for this sequence: TFQLLNMIK Y

Strictly below 4 µM: is that where Kd of SACANGWIQY sits? N

Is Kd of IFSPENKAFK strictly below 4 µM? Y

Take the sequence IMEIVSHLR and say whether its Kd is less than 4 µM. Y

Say whether its Kd is strictly beneath 4 µM. Entry: ELCGAFLFY N

Is it true that Kd reported for KLDNHDILTY is less than 4 µM? N

Please determine if DTDIFSPENK is below 4 µM in terms of Kd. N

A record lists NVPERQLILR . Is its Kd below 4 µM? Y

# strict comparison: is reported Kd < 4 µM? input = NARMATMLEY N

Say whether its Kd is strictly beneath 4 µM. Entry: QLVFNSISAR Y

Could you please tell me whether Kd recorded for KIDKLTFQIY is less than 4 µM? N

Hi there! Is Kd for GARVIWMDAY below 4 µM, do you know? Y

Does the reported Kd of the following sequence sit strictly below 4 µM? LVCFPSTQR Y

In the record for ILARNEEGR , is Kd less than 4 µM? Y

Please state whether Kd is below 4 µM for YVEKEENMDK N

Is Kd strictly under 4 µM for the entry AFDAPTLYVK ? N

For this sequence, is Kd lower than 4 µM? QTPTKLMNK N
